Value source: patent US7329737

- experimental_system: T1, hK1 (human tissue kallikrein 1), recombinant (human, UniProt P06870 25-262)
- T1 construct: Expressed in P. pastoris from KLK1 cDNA and purified; enzymatically active; also called KLK1; Recombinant (Pichia) Kallikrein
- procedure_details: SPR
Here, each record is paired with measured kon data.
Report only the number, with the unit M⁻¹ s⁻¹ understood.

Short answer for M0107-F11 (Fab, V domains shown) VH: EVQLLESGGGLVQPGGSLRLSCAASGFTFSHYQMHWVRQAPGKGLEWVSSIRPSGGRTAYADSVKGRFTISRDNSKNTLYLQMNSLRAEDTAVYYCARVGVWYGMDVWGQGTTVTVSS VL: DIQMTQSPGTLSLSPGERATLSCRASQSVSGSYLAWYQQKPGQAPSLLIYGAYSRATGIPDRFSGSGSGTDFTLTISRLEPEDFAVYYCQHYGSSPRTFGGGTKVEIKR : kon was 680000

binder M0124-C12 (Fab, V domains shown) VH: EVQLLESGGGLVQPGGSLRLSCAASGFTFSWYTMQWVRQAPGKGLEWVSRIYSSGGGTYYADSVKGRFTISRDNSKNTLYLQMNSLRAEDTAMYYCARVGPWGAFDIWGQGTMVTVSS VL: DIQMTQSPGTLSLSPGERATLSCRASQSVSSNYLAWYQQKPGKAPKLLIYAASSLQSGVPSRFSGSGSGTDFTLTISSLQPEDFATYYCQQRWTFGQGTKVEIKR , kon observed: 3.89e+06
